TARGET_OF_ASSAY: mouseTAAR1 (Mus musculus, UniProt Q923Y8)
Construct: expressed in transfected cells; host or cells: HEK293 (ATCC #CRL-1573), stably transfected with pIRESneo2 expression plasmid; membrane preparation
Sequence (Q923Y8 whole entry): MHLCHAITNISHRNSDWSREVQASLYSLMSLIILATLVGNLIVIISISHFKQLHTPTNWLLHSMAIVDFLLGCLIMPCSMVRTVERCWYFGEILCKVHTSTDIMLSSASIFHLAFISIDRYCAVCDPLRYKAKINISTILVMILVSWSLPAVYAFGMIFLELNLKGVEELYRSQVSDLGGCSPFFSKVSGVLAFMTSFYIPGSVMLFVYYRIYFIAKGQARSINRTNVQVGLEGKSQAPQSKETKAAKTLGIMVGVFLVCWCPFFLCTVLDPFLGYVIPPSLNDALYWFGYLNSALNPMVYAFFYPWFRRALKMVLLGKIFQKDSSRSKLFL
ASSAY_NOTES: Radioligand binding on membranes of HEK293 cells stably expressing TAAR1
pKi: −log10 of the molar value.
Decide by pKi: equal to or exceeding 8 means Y, less means N.

Recorded results for 5 compounds are shown here.
CCc1ccc(OC)c(CC)c1Cc1cnc[nH]1 = Y
CCC(c1ccccc1)c1cnc[nH]1 (racemic) = N
CC(c1c[nH]cn1)c1cccc2ccccc12 (racemic) = Y
c1cc2c(c(Cc3cnc[nH]3)c1)OCC2 = N
Clc1ccc(Oc2cccc(Cc3cnc[nH]3)c2)cc1 = N

Qu. Answer whether pKi of CCC(c1cc(F)cc(F)c1)c1cnc[nH]1 (racemic) is greater than or equal to 8.
Ans. N

Qu. Answer whether pKi of "CCc1cc(OC)cc(CC)c1Cc1cnc[nH]1" is greater than or equal to 8.
Ans. Y
